# assay target: RORgT (Homo sapiens, UniProt P51449)
# Construct: Gal4 (fusion partner); expressed in transfected cells; host or cells: engineered Jurkat cells (Jurkat pEx/Gal/hRORγ CLBD/HYG pG5luc/blast)
# Sequence (P51449 267-516): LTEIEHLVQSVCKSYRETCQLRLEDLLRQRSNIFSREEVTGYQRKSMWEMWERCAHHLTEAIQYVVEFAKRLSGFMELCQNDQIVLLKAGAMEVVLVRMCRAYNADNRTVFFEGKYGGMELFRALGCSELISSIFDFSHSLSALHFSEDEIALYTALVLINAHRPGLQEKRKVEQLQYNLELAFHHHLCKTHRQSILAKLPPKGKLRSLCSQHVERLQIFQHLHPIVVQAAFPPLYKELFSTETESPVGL
# test summary: RORgT Gal4 Luciferase Reporter Gene Assay
# Format: cell-based
# details: engineered Jurkat cells overexpressing RORgT (LBD or full length) with Gal4 Luc reporter; 18 hours at 37° C.; 40 μM to 0.67 nM; read-out: RORg_GAL4 EC50
result type: pEC50
To interpret pEC50, take it as minus log10 of a concentration measured in moles per litre.

Lookup: For CC(=O)NC[C@H]1CN(c2cc(Cl)c(Oc3cc(F)cc(C(C)C)c3)c(Cl)c2)C(=O)O1 [Example 272] , write its pEC50.
Found: 6.59

Lookup: For COc1ccc(Oc2c(Cl)cc(NC(=O)CN3CC[C@H](NS(C)(=O)=O)C3)cc2Cl)cc1C(C)C [Example 165] , write its pEC50.
Found: 6.74

Lookup: For COc1ccc(Oc2c(Cl)ccc(C(=O)N3CCC(N(C)C)CC3)c2Cl)cc1C(C)C [Example 192] , write its pEC50.
Found: 7.05

Lookup: For Cc1ccc(Oc2c(Cl)cc(NC(=O)Cc3cccnc3)cc2Cl)cc1C(C)C [Example 49] , write its pEC50.
Found: 6.46

Lookup: For CC(c1cc(F)cc(Oc2c(Cl)cc(NC(=O)Cc3ccc(S(C)(=O)=O)cc3)cc2Cl)c1)C(F)(F)F (stereo not shown) [Example 354] , write its pEC50.
Found: 8.46

Lookup: For COc1ccc(Oc2c(Cl)cc(NC(=O)Cc3cncnc3)cc2Cl)cc1C(C)C [Example 342] , write its pEC50.
Found: 6.87

Lookup: For COc1ccc(Oc2c(Cl)cc(NC(=O)Cc3ccc(C)nc3)cc2Cl)cc1C(C)C [Example 344] , write its pEC50.
Found: 7.12

Lookup: For COc1ccc(Oc2c(Cl)cc(NC(=O)CN3CC[C@H](NS(=O)(=O)C4CC4)C3)cc2Cl)cc1C(C)C [Example 170] , write its pEC50.
Found: 6.43

Lookup: For COc1ccc(Oc2c(Cl)cc(NC(=O)CN(C)C)cc2Cl)cc1C(C)C [Example 280] , write its pEC50.
Found: 6.18

Lookup: For COc1ncc(Oc2c(Cl)ccc(C(=O)NC(C)c3ccc(S(C)(=O)=O)cc3)c2Cl)cc1C(C)C (stereo not shown) [Example 135] , write its pEC50.
Found: 7.96

Lookup: For COc1ccc(Oc2c(Cl)ccc(C(=O)N3CC4(CCN(S(C)(=O)=O)CC4)C3)c2Cl)cc1C(C)C [Example 68] , write its pEC50.
Found: 7.82

Lookup: For COc1ccc(Oc2c(Cl)cc(NC(=O)CC3CCN(S(N)(=O)=O)CC3)cc2Cl)cc1C(C)C [Example 46] , write its pEC50.
Found: 6.36

Lookup: For COc1ncc(Oc2c(Cl)cc(NC(=O)CC3CCN(S(C)(=O)=O)CC3)cc2Cl)cc1C1CC1 [Example 126] , write its pEC50.
Found: 8.49

Lookup: For CC(C)c1cc(F)cc(Oc2c(Cl)ccc(CNC(=O)c3ccc(S(N)(=O)=O)cc3)c2Cl)c1 [Example 150] , write its pEC50.
Found: 8.09

Lookup: For COc1ccc(Oc2c(Cl)cc(NC(=O)CCC(=O)O)cc2Cl)cc1C(C)C [Example 340] , write its pEC50.
Found: 5.26

Lookup: For COc1ccc(Oc2c(Cl)cc3[nH]c(Cc4cccnc4)nc3c2Cl)cc1C(C)C [Example 309] , write its pEC50.
Found: 6.39

Lookup: For COc1ccc(Oc2c(Cl)ccc(CNC(=O)C3CCN(S(C)(=O)=O)CC3)c2Cl)cc1C(C)C [Example 213] , write its pEC50.
Found: 7.72

Lookup: For COc1ccc(Oc2c(Cl)ccc(C(=O)NCCc3cccnc3)c2Cl)cc1C(C)C [Example 76] , write its pEC50.
Found: 6.04

Lookup: For COc1ccc(Oc2c(Cl)ccc(N(C)C(=O)C(C)c3ccc(S(C)(=O)=O)cc3)c2Cl)cc1C(C)C (stereo not shown) [Example 66] , write its pEC50.
Found: 6.57

Lookup: For COc1ccc(Oc2c(Cl)ccc(C(=O)NCCn3ccnc3)c2Cl)cc1C(C)C [Example 19] , write its pEC50.
Found: 6.40

Lookup: For CC(C)c1cc(F)cc(Oc2c(Cl)ccc(CNC(=O)c3ccc(S(C)(=O)=O)cc3)c2Cl)c1 [Example 149] , write its pEC50.
Found: 7.82

Lookup: For COc1ccc(Oc2c(Cl)cc(NC(=O)CCn3cncn3)cc2Cl)cc1C(C)C [Example 245] , write its pEC50.
Found: 5.81

Lookup: For CC(C)c1cc(F)cc(Oc2c(Cl)ccc(C(=O)N3CCC(S(C)(=O)=O)CC3)c2Cl)c1 [Example 264] , write its pEC50.
Found: 7.41

Lookup: For COc1ccc(Oc2c(Cl)ccc(C(=O)N(C)C)c2Cl)cc1C(C)C [Example 78] , write its pEC50.
Found: 5.98

Lookup: For CC(c1cc(F)cc(Oc2c(Cl)ccc(C(=O)N3CCC4(CC3)CN(S(C)(=O)=O)C4)c2Cl)c1)C(F)(F)F (stereo not shown) [Example 357] , write its pEC50.
Found: 7.96
